The reported measurements were obtained from the supplement of paper PMC6555819.

# System: RXRa DBDmut IVT, anti-RXR (DBD mutation: RXRa K156A/R161A, NR concentration 90 nM)
# ASSAY METHOD TEXT: PBM binding z-score (relative to random genomic background probes); higher = stronger binding; sequences stand for … in GC…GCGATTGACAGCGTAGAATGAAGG
Parameter PBM binding z-score: see the listing below.

SEQ STRING	PBM binding z-score
ACAATGAGGTTAAGATCAGGGAAACAGAATACAT	1.33
CCTTACGGGTCACTGACAGGCTATAGCATTTGGA	1.86
AGAATGAGGTTACCAAAGATCTGGGAAACGCTTG	0.786
TCGAGTAGGTTACCAATGGGGCAGTCAGCTTTCT	0.0356
TCTGCTAGGTCAACGATGGTCAGCTAGTCTGCTA	0.638
GTACCAAGGTGAAGAGGTCGTTGATGAGTAGGCG	0.608
CAAACTAGGTCACGAAATGTCAAAGTCGAATGAC	2.02
CATACAGGGTCAGCAAGGCCAGAGTAGGGACGGC	1.92
CTCGAAAGGTCGGTCGAGGTGAGTATACGGATAA	0.728
ATCGAAAGGTCGAGGTGAGTACAGAGAAAGGGAA	0.83
GCGACTGGGGCATCAGCAGGTTCCCATAACTTAA	-0.281
TCTAGCAGGCCAAAGGGTCACTCAAGAGGTACGG	0.568
